Values from patent US20140287419A1

- assayName: 14C assay with IPTG-induced recombinant E. coli cells (14CO2 capture from [14C]-carboxyl-labeled dicamba)
- conditionDescription: IPTG-induced recombinant E. coli cells; [14C]-carboxyl-labeled dicamba; 14CO2 capture
measuredMetric: Dicamba Decarboxylase Activity

>  <molecule>
11 (protein, Aspergillus niger) MALGKIALEEAFALPRFEEKTRWWASLFSVDPETHVKEITDINKLRIEHADKYGVGYQILSYTAPGVQDIWDPVEAQALAVEINDYIAEQIRDKPDRFGAFATLSMHNPQEAASELRRCVQTYGFKGALVNDTQRAGPDGDDMIFYDNASWDIFWQTCTELDVPLYLHPRNPTGTIYEKLWADRKWLVGPPLSFAQGVSLHVLGMVTNGVFDRHPNLQLIMGHLGEHVPFDMWRINHWFEDRKKLLGLAETCKKTIREYFAQNIWITTSGHFSTTTLNFCMAEVGVDRILFSIDYPFETFEDACVWFDGAELNLSDKAKIGRDNAARLFKLGAFRDYDAKVKA

>  <measuredMetric>
Dicamba Decarboxylase Activity

>  <reportedMeasurement>
Low

$$$$
>  <molecule>
31 (protein, listed as Agrobacterium sp.) MAQGKVALEEHFAIPETLQDSAGFVPGDYWKELQHRLLDIQDTRLKLMDAHGIETMILSLNAPAVQAIPDKTKAIEIARRANDVLAEECAKRPDRFLAFAALPLQDPDAATEELQRCVNDLGFVGALVNGFSQEGDGQTPLYYDLPQYRPFWGEVEKLDVPFYLHPRNPLPQDSRIYDGHPWLLGPTWAFAQETAVHALRLMASGLFDEHPRLNIILGHMGEGLPYMMWRIDHRNAWVKLPPRYPAKRRFMDYFNENFHITTSGNFRTQTLIDAILEIGADRILFSTDWPFENIDHASDWFNATSIAEADRVKIGRTNARRLFKLDGA

>  <measuredMetric>
Dicamba Decarboxylase Activity

>  <reportedMeasurement>
High

$$$$
